biological target: MYO3B (human) (UniProt Q8WXR4); experiment: radiometric filter-binding kinase assay, Kinase HotSpot; conditions: compound 0.5 µM; ATP 10 µM
Sequence (Q8WXR4 whole entry, looked up): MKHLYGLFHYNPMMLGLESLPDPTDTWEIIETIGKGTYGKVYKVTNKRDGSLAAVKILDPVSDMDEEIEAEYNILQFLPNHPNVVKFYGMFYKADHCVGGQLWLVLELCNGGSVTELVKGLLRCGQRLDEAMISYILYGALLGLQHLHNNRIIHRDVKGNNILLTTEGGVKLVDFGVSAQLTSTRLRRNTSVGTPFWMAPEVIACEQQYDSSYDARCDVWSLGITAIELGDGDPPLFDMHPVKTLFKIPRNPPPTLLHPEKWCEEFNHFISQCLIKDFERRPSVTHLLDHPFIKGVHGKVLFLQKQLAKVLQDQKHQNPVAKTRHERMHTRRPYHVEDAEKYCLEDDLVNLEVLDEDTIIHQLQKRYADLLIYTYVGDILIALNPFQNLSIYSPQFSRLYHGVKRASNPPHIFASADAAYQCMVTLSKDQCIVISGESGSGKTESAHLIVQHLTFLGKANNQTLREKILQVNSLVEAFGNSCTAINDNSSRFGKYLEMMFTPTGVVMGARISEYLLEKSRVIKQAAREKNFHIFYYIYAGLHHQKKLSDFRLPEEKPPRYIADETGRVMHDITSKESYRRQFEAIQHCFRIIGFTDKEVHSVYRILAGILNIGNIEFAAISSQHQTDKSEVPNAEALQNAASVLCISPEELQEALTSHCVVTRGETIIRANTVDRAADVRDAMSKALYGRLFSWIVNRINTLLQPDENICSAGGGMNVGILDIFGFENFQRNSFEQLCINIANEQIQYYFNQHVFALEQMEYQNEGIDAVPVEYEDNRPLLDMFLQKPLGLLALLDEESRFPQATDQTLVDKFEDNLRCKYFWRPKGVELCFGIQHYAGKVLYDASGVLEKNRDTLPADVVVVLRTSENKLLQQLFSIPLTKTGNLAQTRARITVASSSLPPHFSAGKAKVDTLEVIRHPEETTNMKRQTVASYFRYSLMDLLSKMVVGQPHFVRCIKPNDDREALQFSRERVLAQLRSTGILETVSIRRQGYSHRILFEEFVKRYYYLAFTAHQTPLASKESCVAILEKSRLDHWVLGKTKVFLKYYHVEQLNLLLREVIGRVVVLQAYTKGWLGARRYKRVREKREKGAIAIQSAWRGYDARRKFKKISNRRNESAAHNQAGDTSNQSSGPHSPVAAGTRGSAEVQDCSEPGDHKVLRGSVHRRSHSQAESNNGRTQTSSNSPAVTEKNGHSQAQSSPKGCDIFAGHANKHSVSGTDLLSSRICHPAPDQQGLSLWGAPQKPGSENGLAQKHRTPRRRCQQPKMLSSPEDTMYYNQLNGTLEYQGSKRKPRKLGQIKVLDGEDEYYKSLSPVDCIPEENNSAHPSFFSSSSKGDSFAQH
quantity-name: residual activity (%)
Report only the number, with the unit % understood.

CSc1nc(-c2ccc(F)cc2)c(-c2ccnc(NC(C)c3ccccc3)c2)[nH]1 (centres undefined)
100
O=c1cc(N2CCNCC2)oc2c(-c3ccccc3)cccc12
97.5

Please look at this compound and report its residual activity: Clc1ccc(Nc2nnc(Cc3ccncc3)c3ccccc23)cc1
102

Please look at this compound and report its residual activity: NC(=O)c1ccc(N(C(N)=O)c2c(F)cccc2F)nc1-c1ccc(F)cc1F
99.2

###

Quick reference for residual activity among some compounds
molecular target: MYLK2 (human) (UniProt Q9H1R3); assay: radiometric filter-binding kinase assay, Kinase HotSpot; settings: compound 0.5 µM; ATP 10 µM
Sequence (Q9H1R3 whole entry, looked up): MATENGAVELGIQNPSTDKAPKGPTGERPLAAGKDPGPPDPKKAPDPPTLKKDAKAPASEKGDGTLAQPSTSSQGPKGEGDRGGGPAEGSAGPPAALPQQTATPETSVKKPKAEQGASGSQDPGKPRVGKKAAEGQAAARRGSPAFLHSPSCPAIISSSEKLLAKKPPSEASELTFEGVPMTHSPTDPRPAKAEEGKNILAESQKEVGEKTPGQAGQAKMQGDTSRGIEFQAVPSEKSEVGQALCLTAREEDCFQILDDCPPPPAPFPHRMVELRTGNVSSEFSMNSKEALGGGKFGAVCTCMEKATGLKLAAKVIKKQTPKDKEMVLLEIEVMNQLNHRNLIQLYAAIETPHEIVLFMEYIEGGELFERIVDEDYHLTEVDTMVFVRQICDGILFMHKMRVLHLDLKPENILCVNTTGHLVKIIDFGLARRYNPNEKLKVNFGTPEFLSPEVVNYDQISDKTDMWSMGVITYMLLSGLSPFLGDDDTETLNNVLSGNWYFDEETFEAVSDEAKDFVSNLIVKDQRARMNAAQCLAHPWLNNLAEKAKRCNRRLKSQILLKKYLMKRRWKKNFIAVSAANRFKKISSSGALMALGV
Report as: number unit

Take a look at these entries with their results.
O=C(NC(NC(=S)Nc1ccc(F)c([N+](=O)[O-])c1)C(Cl)(Cl)Cl)C(c1ccccc1)c1ccccc1 (stereo not given)
104%
Clc1ccc(Nc2nnc(Cc3ccncc3)c3ccccc23)cc1
103%
O=C1Nc2ccccc2/C1=C\c1c(Cl)[nH]c2ccccc12
94.6%
Nc1nc(Nc2ccc(S(N)(=O)=O)cc2)nn1C(=S)Nc1c(F)cccc1F
66.6%
COc1cc2ncnc(Nc3ccc(F)c(Cl)c3)c2cc1OCCCN1CCOCC1
99.2%
Nc1nc(Nc2ccc(S(N)(=O)=O)cc2)nn1C(=O)c1c(F)cccc1F
96.1%
Nc1n[nH]c2nnc(-c3c(-c4ccccc4)nn4ccccc34)cc12
101%
Cc1cc2ncc(-c3ccccc3)nc2cc1C
99.7%

Please look at this compound and report its residual activity: Cc1ccc(NC(=O)c2ccc(CN3CCN(C)CC3)cc2)cc1Nc1nc(-c2cccnc2)cs1
98.7%

Please look at this compound and report its residual activity: O=c1cc(N2CCNCC2)oc2c(-c3ccccc3)cccc12
97.3%

###

molecular target: ULK1 (human) (UniProt O75385); test: radiometric filter-binding kinase assay, Kinase HotSpot; details: compound 0.5 µM; ATP 10 µM
Quick reference for residual activity among some compounds
Report only the number, with the unit % understood.

Take a look at these entries with their results.
CC(C)n1cnc2c(Nc3cccc(Cl)c3)nc(NCCO)nc21
77.6
Nc1n[nH]c2nnc(-c3c(-c4ccccc4)nn4ccccc34)cc12
97.1
CC(C)(C)c1nc2c3ccc(F)cc3c3c(=O)[nH]ccc3c2[nH]1
12.8

Please look at this compound and report its residual activity: Clc1ccc(Nc2nnc(Cc3ccncc3)c3ccccc23)cc1
107

Please look at this compound and report its residual activity: Cc1ccc(NC(=O)c2ccc(CN3CCN(C)CC3)cc2)cc1Nc1nc(-c2cccnc2)cs1
97.7

###

target: KIT (human); experiment: radiometric filter-binding kinase assay, Kinase HotSpot; details: compound 0.5 µM; ATP 10 µM
Quick reference for residual activity among some compounds
Report only the number, with the unit % understood.

Oc1ccc(-c2nc(-c3ccc(F)cc3)c(-c3ccncc3)[nH]2)cc1
97.7
O=c1cc(-c2cccc3c2Sc2ccccc2S3)oc(N2CCOCC2)c1
96.8
Nc1nc(Nc2ccc(S(N)(=O)=O)cc2)nn1C(=S)Nc1c(F)cccc1F
78.4

State residual activity (KIT (human)) of COc1cc2nccc(Oc3ccc(NC(=S)NC(=O)c4ccccc4C)cc3)c2cc1OC .
34.5

State residual activity (KIT (human)) of CC(C)(C)c1nc2c3ccc(F)cc3c3c(=O)[nH]ccc3c2[nH]1 .
96.1

###

target: STK33 (human) (UniProt Q9BYT3); test: radiometric filter-binding kinase assay, Kinase HotSpot; conditions: compound 0.5 µM; ATP 10 µM
Sequence (Q9BYT3 whole entry, looked up): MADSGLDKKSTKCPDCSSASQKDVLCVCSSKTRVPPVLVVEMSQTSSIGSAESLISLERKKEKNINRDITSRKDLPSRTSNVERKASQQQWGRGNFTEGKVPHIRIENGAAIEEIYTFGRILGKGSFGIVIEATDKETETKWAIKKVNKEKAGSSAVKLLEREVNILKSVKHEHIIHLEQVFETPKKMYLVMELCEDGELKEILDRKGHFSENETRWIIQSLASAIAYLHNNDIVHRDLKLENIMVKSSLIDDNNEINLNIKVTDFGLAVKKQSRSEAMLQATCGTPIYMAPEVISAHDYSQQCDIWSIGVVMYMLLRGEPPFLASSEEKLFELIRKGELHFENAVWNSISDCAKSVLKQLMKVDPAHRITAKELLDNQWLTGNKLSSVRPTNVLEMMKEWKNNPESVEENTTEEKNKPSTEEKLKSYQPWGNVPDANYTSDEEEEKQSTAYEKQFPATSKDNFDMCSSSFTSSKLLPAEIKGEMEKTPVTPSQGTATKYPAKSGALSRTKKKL
quantity-name: residual activity (%)
Report only the number, with the unit % understood.

Take a look at these entries with their results.
Nc1n[nH]c2nnc(-c3c(-c4ccccc4)nn4ccccc34)cc12
100
O=c1cc(-c2cccc3c2Sc2ccccc2S3)oc(N2CCOCC2)c1
93.3
COC(=O)[C@]1(O)C[C@@H]2O[C@@]1(C)n1c3ccccc3c3c4c(c5c6ccccc6n2c5c31)C(=O)NC4
12.5

Please look at this compound and report its residual activity: C#Cc1cccc(Nc2ncnc3cc(OCCOC)c(OCCOC)cc23)c1
90.8

Please look at this compound and report its residual activity: O=C(NC(NC(=S)Nc1ccc(F)c([N+](=O)[O-])c1)C(Cl)(Cl)Cl)C(c1ccccc1)c1ccccc1 (stereo not given)
99.6

###

target: HIPK4 (human) (UniProt Q8NE63); test: radiometric filter-binding kinase assay, Kinase HotSpot; settings: compound 0.5 µM; ATP 10 µM
Sequence (Q8NE63 whole entry, looked up): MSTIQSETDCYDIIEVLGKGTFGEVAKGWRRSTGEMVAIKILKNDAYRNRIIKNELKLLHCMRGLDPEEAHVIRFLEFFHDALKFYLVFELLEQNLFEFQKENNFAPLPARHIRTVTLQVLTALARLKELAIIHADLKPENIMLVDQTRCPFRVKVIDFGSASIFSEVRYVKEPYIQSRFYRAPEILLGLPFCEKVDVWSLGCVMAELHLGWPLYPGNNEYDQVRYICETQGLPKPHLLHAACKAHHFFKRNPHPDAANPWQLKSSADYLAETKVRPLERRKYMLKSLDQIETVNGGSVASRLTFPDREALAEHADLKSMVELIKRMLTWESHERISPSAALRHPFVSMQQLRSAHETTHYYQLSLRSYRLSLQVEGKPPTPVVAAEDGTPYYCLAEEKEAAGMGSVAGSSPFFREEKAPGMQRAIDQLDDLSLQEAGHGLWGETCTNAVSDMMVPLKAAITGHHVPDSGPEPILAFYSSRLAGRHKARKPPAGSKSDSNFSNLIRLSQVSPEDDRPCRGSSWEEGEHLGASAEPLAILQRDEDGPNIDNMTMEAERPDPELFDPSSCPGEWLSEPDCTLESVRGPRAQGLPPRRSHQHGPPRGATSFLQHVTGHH
Quick reference for residual activity among some compounds
Report as: number unit

O=c1cc(-c2cccc3c2Sc2ccccc2S3)oc(N2CCOCC2)c1
100%

Please look at this compound and report its residual activity: Nc1n[nH]c2nnc(-c3c(-c4ccccc4)nn4ccccc34)cc12
105%

Please look at this compound and report its residual activity: O=C(Nc1ccc(Cl)cc1)c1ccccc1NCc1ccncc1
103%

###

molecular target: MAPKAPK2 (human); assay: radiometric filter-binding kinase assay, Kinase HotSpot; details: compound 0.5 µM; ATP 10 µM
quantity-name: residual activity (%)
Report only the number, with the unit % understood.

Take a look at these entries with their results.
Nc1n[nH]c2nnc(-c3c(-c4ccccc4)nn4ccccc34)cc12
105
Oc1ccc(-c2nc(-c3ccc(F)cc3)c(-c3ccncc3)[nH]2)cc1
99.2
O=C1Nc2cc(Br)ccc2/C1=C1/Nc2ccccc2/C1=N\O
86.9
CC(C)[C@H](CO)Nc1nc(Nc2cccc(Cl)c2)c2ncn(C(C)C)c2n1
102
Cc1ccc(NC(=O)c2ccc(CN3CCN(C)CC3)cc2)cc1Nc1nc(-c2cccnc2)cs1
102
Nc1nc(Nc2ccc(S(N)(=O)=O)cc2)nn1C(=S)Nc1c(F)cccc1F
91.1
O=C1Nc2ccccc2/C1=C\c1c(Cl)[nH]c2ccccc12
101
Cc1cc2ncc(-c3ccccc3)nc2cc1C
95.9

// moving on: another record for residual activity
Please look at this compound and report its residual activity: CSc1nc(-c2ccc(F)cc2)c(-c2ccnc(NC(C)c3ccccc3)c2)[nH]1 (centres undefined)
106

###

target: RPS6KA3 KD1 KD2 (human) (UniProt P51812); assay: radiometric filter-binding kinase assay, Kinase HotSpot; conditions: compound 0.5 µM; ATP 10 µM
Sequence (P51812 whole entry, looked up): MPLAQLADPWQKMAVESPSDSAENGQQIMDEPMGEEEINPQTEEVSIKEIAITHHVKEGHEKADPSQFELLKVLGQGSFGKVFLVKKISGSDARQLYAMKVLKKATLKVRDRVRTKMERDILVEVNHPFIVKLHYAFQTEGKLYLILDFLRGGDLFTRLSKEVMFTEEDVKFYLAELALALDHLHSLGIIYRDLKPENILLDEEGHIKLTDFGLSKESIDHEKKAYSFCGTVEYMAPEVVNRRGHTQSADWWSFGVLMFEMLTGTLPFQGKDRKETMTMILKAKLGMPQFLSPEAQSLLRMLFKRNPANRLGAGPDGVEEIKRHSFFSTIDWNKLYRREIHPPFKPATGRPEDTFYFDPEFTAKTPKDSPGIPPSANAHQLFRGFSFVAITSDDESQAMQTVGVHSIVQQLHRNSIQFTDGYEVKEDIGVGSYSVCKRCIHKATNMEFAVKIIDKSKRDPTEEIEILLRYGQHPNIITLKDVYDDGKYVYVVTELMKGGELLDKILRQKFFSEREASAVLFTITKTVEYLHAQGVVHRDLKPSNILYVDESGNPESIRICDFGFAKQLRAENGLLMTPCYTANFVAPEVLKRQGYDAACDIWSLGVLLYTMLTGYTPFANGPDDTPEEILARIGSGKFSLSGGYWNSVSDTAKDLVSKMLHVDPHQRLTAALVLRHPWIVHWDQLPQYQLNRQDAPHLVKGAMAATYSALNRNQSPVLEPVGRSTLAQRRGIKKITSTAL
quantity-name: residual activity
Report as: number unit

Take a look at these entries with their results.
Nc1nc(Nc2ccc(S(N)(=O)=O)cc2)nn1C(=S)Nc1c(F)cccc1F
-0.692%
O=C1Cc2c([nH]c3ccc([N+](=O)[O-])cc23)-c2ccccc2N1
70.6%
O=C(Nc1ccc(Cl)cc1)c1ccccc1NCc1ccncc1
91.4%
Cc1cc2ncc(-c3ccccc3)nc2cc1C
94.2%
Oc1ccc(-c2nc(-c3ccc(F)cc3)c(-c3ccncc3)[nH]2)cc1
96.1%
COc1cc2nccc(Oc3ccc(NC(=S)NC(=O)c4ccccc4C)cc3)c2cc1OC
86.9%
CC(C)[C@H](CO)Nc1nc(Nc2cccc(Cl)c2)c2ncn(C(C)C)c2n1
86.3%
CC(C)n1cnc2c(Nc3cccc(Cl)c3)nc(NCCO)nc21
60.1%
CCCNC(=O)Nc1ccc(Oc2ncnc3cc(OC)c(OC)cc23)cc1Cl
94.9%
O=C1Nc2ccccc2/C1=C\c1c(Cl)[nH]c2ccccc12
82.9%

Please look at this compound and report its residual activity: O=C1Nc2cc(Br)ccc2/C1=C1/Nc2ccccc2/C1=N\O
65.7%

###

Quick reference for residual activity among some molecules
target: PRKX (human) (UniProt P51817); assay: radiometric filter-binding kinase assay, Kinase HotSpot; conditions: compound 0.5 µM; ATP 10 µM
Sequence (P51817 whole entry, looked up): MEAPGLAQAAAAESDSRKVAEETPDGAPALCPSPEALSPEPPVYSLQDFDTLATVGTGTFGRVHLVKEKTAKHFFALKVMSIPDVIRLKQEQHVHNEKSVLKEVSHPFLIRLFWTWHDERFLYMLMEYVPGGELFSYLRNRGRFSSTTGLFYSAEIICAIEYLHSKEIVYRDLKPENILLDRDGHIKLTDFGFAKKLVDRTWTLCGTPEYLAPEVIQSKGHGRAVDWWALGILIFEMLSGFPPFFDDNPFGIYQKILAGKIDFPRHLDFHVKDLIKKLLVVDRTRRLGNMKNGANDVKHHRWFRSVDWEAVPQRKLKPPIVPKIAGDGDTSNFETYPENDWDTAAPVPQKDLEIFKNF
Report only the number, with the unit % understood.

Clc1ccc(Nc2nnc(Cc3ccncc3)c3ccccc23)cc1
152

State residual activity (PRKX (human) (UniProt P51817)) of O=C(Nc1ccc(Cl)cc1)c1ccccc1NCc1ccncc1 .
90.5

State residual activity (PRKX (human) (UniProt P51817)) of Oc1ccc(-c2nc(-c3ccc(F)cc3)c(-c3ccncc3)[nH]2)cc1 .
84

State residual activity (PRKX (human) (UniProt P51817)) of CSc1nc(-c2ccc(F)cc2)c(-c2ccnc(NC(C)c3ccccc3)c2)[nH]1 (stereo unspecified) .
91.5

State residual activity (PRKX (human) (UniProt P51817)) of Cc1cc2ncc(-c3ccccc3)nc2cc1C .
97.9

State residual activity (PRKX (human) (UniProt P51817)) of Cc1ccc(NC(=O)c2ccc(CN3CCN(C)CC3)cc2)cc1Nc1nc(-c2cccnc2)cs1 .
99.5

State residual activity (PRKX (human) (UniProt P51817)) of CC(C)(C)c1nc2c3ccc(F)cc3c3c(=O)[nH]ccc3c2[nH]1 .
79.2

State residual activity (PRKX (human) (UniProt P51817)) of CS(=O)c1ccc(-c2nc(-c3ccc(F)cc3)c(-c3ccncc3)[nH]2)cc1 (stereo unspecified) .
99.3

State residual activity (PRKX (human) (UniProt P51817)) of COc1cc2nccc(Oc3ccc(NC(=S)NC(=O)c4ccccc4C)cc3)c2cc1OC .
100

State residual activity (PRKX (human) (UniProt P51817)) of O=C1Nc2cc(Br)ccc2/C1=C1/Nc2ccccc2/C1=N\O .
92.1

State residual activity (PRKX (human) (UniProt P51817)) of O=c1cc(-c2cccc3c2Sc2ccccc2S3)oc(N2CCOCC2)c1 .
113

Source: the kinase profiling compilation of Christmann-Franck et al. (2016)
